Form field: viability, T/C (one value per entry).
Tested on: 233499-124-R-J3-PDC complex spheroid viability;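 note: spheroids exposed to the drug combinations for seven days; percent viability relative to DMSO vehicle control wells taken as 100%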
Protocol Description: Anticancer human tumor 233499-124-R-J3-PDC patient-derived colon adenocarcinoma cell line growth inhibition [CLK]
Condition: second compound 0.1 µM; first compound 3.16 µM; active compounds read low

# Compound, viability, T/C
measured = [
    ("CC(CO)NC(=O)c1cc(-c2ccc(Cl)cc2)nn(-c2cnn(C)c2)c1=O (stereo not given) + CNC(=O)c1ccc(Nc2nc(OC3CCCC3)c3c(-c4ccc5nc(C)oc5c4)c[nH]c3n2)c(OC)c1", "87.8%"),
    ("COc1cccc2c1C(=O)c1c(O)c3c(c(O)c1C2=O)CC(O)(C(=O)CO)CC3OC1CC(N)C(O)C(C)O1 (stereo not given) + CN1CCN(c2cc(C(=O)Nc3cc4cc(-c5cnn(C)c5)ccc4cn3)ccn2)CC1", "30.7%"),
    ("C=CC(=O)N1CCN(c2nc(=O)n(-c3c(C)ccnc3C(C)C)c3nc(-c4c(O)cccc4F)c(F)cc23)C(C)C1 (stereo not given) + CN1CCN(c2cc(C(=O)Nc3cc4cc(-c5cnn(C)c5)ccc4cn3)ccn2)CC1", "101%"),
    ("C=C(F)C(=O)N1CCN(c2nc(OCC3CCCN3C)nc3c2CCN(c2cccc4cccc(Cl)c24)C3)CC1CC#N (stereo not given) + CN1CCN(c2cc(C(=O)Nc3cc4cc(-c5cnn(C)c5)ccc4cn3)ccn2)CC1", "95.2%"),
    ("C=CC(=O)N1CCN(c2nc(=O)n(-c3c(C)ccnc3C(C)C)c3nc(-c4c(O)cccc4F)c(F)cc23)C(C)C1 (stereo not given) + CNC(=O)c1ccc(Nc2nc(OC3CCCC3)c3c(-c4ccc5nc(C)oc5c4)c[nH]c3n2)c(OC)c1", "85.2%"),
]
